- Procedure Text: protein stability index of a GFP-peptide fusion (GPS, HEK-293T) (PSI 1-6); higher = more stable;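 also: 24-mer peptide tiles fused after GFP, lentivirally expressed, FACS-sorted into six equal bins by GFP/DsRed ratio, decoded by Illumina sequencing, PSI is the read-weighted mean bin number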
- Condition Notes: treatment: MLN4924 1 uM, 8 h; c terminus: a fixed tail appended
Listing of recorded protein stability index by entry.
Answer as a number with no unit attached.

These recorded examples may help you get a feel for the data.
KGNRTARIIDKPRVIEVLPRGATA [SEPHS2]: 3.77
GEYIYTGNAKGKILVLKTDSQDLV [RBBP5]: 2.45
VLERAACLRRCKRTLPAFQVPYPP [P3H4]: 2.16
QAVCGKCSSKRSSYPVMGFEFQVR [WDFY1]: 2.34
TGTALRFRVLCTAPAKYTVFDAEG [MOSPD3]: 2.54

Value of measured protein stability index for the entry QEEEEDNRDSSMKLSFRARAYGFR [CHGA] : 4.62

Value of measured protein stability index for the entry YLLPDTCFRMQINHAIDIICGFLK [OAS1] : 2.1

###

Listing of recorded protein stability index by entry.
- Procedure Text: protein stability index of a GFP-peptide fusion (GPS, HEK-293T) (PSI 1-6); higher = more stable
- Condition Notes: treatment: DMSO; c terminus: a fixed tail appended

ETTRNTTGIEESTDGMILGPEDLS [LARP4]: 5.47
VDMECQTDAFLDRPPTPLFIPAKT [RSPH3]: 4.01
NFSTFIKCIFTQFRIILGDFDYNA [PKD2L1]: 2.98
LGQDRQVPLWGQLLLFLVFVIVLF [EMD]: 2.83
FALGLGFGGVIAFSSYNKQDNNCH [SLC6A17]: 2.01
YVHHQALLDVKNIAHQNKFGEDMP [HDAC6]: 2.83

Value of measured protein stability index for the entry MGGSGSRLSKELLAEYQDLTFLTK [CIB1] : 3.17

###

- Procedure Text: protein stability index of a GFP-peptide fusion (GPS, HEK-293T) (PSI 1-6); higher = more stable
- Condition Notes: treatment: DMSO; c terminus: a fixed tail appended
Listing of recorded protein stability index by entry.
Answer as a number with no unit attached.

These recorded examples may help you get a feel for the data.
DIRAKKIASIADVCESMKEQLLVL [HNF4A]: 2.5
QQTHNIEKAHECTDCGKAFLKKSQ [ZNF649]: 3.93
DREDSPERCSDSDEEKKARRGRSP [CLINT1]: 5.59
KFAMYPPSMIATGSVGAAICGLQQ [CCND2]: 2.4
LVKKYGTKQWTLIAKHLKGRLGKQ [MYBL2]: 2.43

Value of measured protein stability index for the entry ASAPTTPCQKSPNGVRVFPPAMPP [TRIM9] : 4.14

Value of measured protein stability index for the entry AWLNYPCFKNWDGSPVSSWILLAE [OAS1] : 2.58

Value of measured protein stability index for the entry GMLKEGVRLDRVRGGRQKYKRRID [ESRRG] : 4.19

###

Listing of recorded protein stability index by entry.
- Procedure Text: protein stability index of a GFP-peptide fusion (GPS, HEK-293T) (PSI 1-6); higher = more stable
- Condition Notes: treatment: DMSO; c terminus: native
Answer as a number with no unit attached.

ILKIRHGWEDVTKINKTEICSQL [STEAP1]: 2.42
AAAHASVDIKDVLDFYKQWKEIG [SMG5]: 3.45
YQGGPPRPPMGMRPPVMSQGGRY [ZNF207]: 2.56
AQNDLDISRIKRGNTTLESTDTL [P2RY14]: 5.26
LCPCLRSGIGSSQALGPSPPLFG [MYCL]: 2.54

Would you kindly look at the next entry?
Value of measured protein stability index for the entry LFAGPHSTLTPPCSPPEDGLCPH [SNX8] : 3.79

###

- Procedure Text: protein stability index of a GFP-peptide fusion (GPS, HEK-293T) (PSI 1-6); higher = more stable
- Condition Notes: treatment: DMSO; c terminus: a fixed tail appended
Listing of recorded protein stability index by entry.

These recorded examples may help you get a feel for the data.
PVLSGAELEKAHLALIDYLTQKRS [VPS39]: 3.37
SCDDLMGGGGLHSVGTYIIDLLTF [GFOD1]: 2.75
LGTPTSSTPRPSITPTKKIELDRT [C2CD2L]: 4.94

Value of measured protein stability index for the entry GKEVVKQLEEGLKDTDLARVRRFQ [M1AP] : 4.58

Value of measured protein stability index for the entry DLRVLVSNASEDTRRLRLAHVGME [SCARA5] : 2.9

###

- Procedure Text: protein stability index of a GFP-peptide fusion (GPS, HEK-293T) (PSI 1-6); higher = more stable
- Condition Notes: treatment: DMSO; c terminus: a fixed tail appended
Label Satisfied when protein stability index is at or above 4; otherwise label Not satisfied.

Answered cases to consult:
HKACEVAPLQSVFQGQKTELNNCI [TRIM63]: Not satisfied
PRLSQLSVTDVTTSSLRLNWEAPP [TNXB]: Not satisfied
GGNKKSDGVKESSESTNTTIEDED [CAMK2A]: Satisfied
MDATNAFKKTAYELLDEKLLARGT [FEM1A]: Not satisfied
KEEEEEDCSEEYLERQLQAEFIES [TAF7L]: Satisfied
GCNSVLIQFATPNDFCSFYNILKT [CARM1]: Not satisfied
FSVVRRCVKLCTGHEYAAKIINTK [CAMK2B]: Not satisfied
AAEMYQRGRAVLREAGFHQYEVSN [RSAD1]: Not satisfied
PSLEAGNPAPAAPCPLGEPKTQAC [MYCL]: Satisfied
LTRVLAEMREQYEAMAEKNRRDVE [KRT15]: Not satisfied

[in] Does the sequence HEGEDQFLSLEASTETLVHVSDED [DLC1] have recorded protein stability index that is 4 or more?
[out] Satisfied

[in] Does the sequence VVEEILELHIHRLRYLSSIWNILD [PKD2L1] have recorded protein stability index that is 4 or more?
[out] Not satisfied

###

- Procedure Text: protein stability index of a GFP-peptide fusion (GPS, HEK-293T) (PSI 1-6); higher = more stable
- Condition Notes: treatment: MLN4924 1 uM, 8 h; c terminus: a fixed tail appended
Observation Type: protein stability index
Answer as a number with no unit attached.

These recorded examples may help you get a feel for the data.
SIVAVGFHIFRTLEVNRLMGKLLQ [PKD2L1]: 2.55
DDEQYAWESSAGGSFTVRADHGEP [HSP90AB1]: 5.07
YLAHASDVLENAFAPLLDEQYDLA [GOLPH3]: 3.12
QDLCGVSTCDTLGMADVGTVCDPA [ADAMTS4]: 5.25

Value of measured protein stability index for the entry SQSLCLNKPTMSFKDYIQERSDPV [ETS2] : 3.67

Value of measured protein stability index for the entry ISKKFGDMSYSIRHSISMPAMRNS [TPD52L1] : 2.65

Value of measured protein stability index for the entry RRGGGPVFPAPVVGSGGATSGKLL [ZBTB22] : 4.33

Value of measured protein stability index for the entry NLLSIALYLLSGSIIAVAMQRGAR [POMT2] : 3.34

Value of measured protein stability index for the entry KILDELEKVLDQVETELQRRNEET [GDAP1] : 3.53

Value of measured protein stability index for the entry VDHQGVSWYHWKGFEFSVPFTEMK [TNXB] : 2.49

Value of measured protein stability index for the entry TSRRARASKKTAQPWVEVVLALRN [MFSD9] : 2.58

Value of measured protein stability index for the entry NLLLTYLIVTSLLLLPGLNQHGII [ARL6IP1] : 3.25

Value of measured protein stability index for the entry RYSTNLSNHVDDFTTFRGTELSFL [EDNRA] : 2.54

###

- Procedure Text: protein stability index of a GFP-peptide fusion (GPS, HEK-293T) (PSI 1-6); higher = more stable
- Condition Notes: treatment: DMSO; c terminus: a fixed tail appended
Observation Type: protein stability index

These recorded examples may help you get a feel for the data.
PLSDKGTTPLQLAIIRERSSCVKI [ASB7]: 2.64
TSRRARASKKTAQPWVEVVLALRN [MFSD9]: 2.33
LNELERLSNLVGKPSENHPLHNSG [MED27]: 4.06

Value of measured protein stability index for the entry LGAVAVFAVGYIKISWSTWGEMTL [SLC19A2] : 2.97

Value of measured protein stability index for the entry QREGTGKTVSLQIFSVLNSDDAAA [SMOC2] : 3.38

Value of measured protein stability index for the entry IEEYMVHVEEHFQLLARRMQVDKK [FUT8] : 3.06

Value of measured protein stability index for the entry LHKFPYRMVPALPPKRMLGADREF [SNX8] : 2.55

Value of measured protein stability index for the entry DSEEDEKMEEDIKEEEEKDHNEAM [PCMTD1] : 5.81

Value of measured protein stability index for the entry SLSYTVLIVGRIAIGVSISLSSIA [SLC2A12] : 3.02

Value of measured protein stability index for the entry LIGLISDRLRRNWPPSFLSEFRAL [SPNS1] : 2.19

Value of measured protein stability index for the entry RMGLMKANHVFFLLYLLHILLLDG [FADS1] : 2.94

Value of measured protein stability index for the entry KASALNTKIRALQGSLENMSKLLK [CD207] : 2.22

Value of measured protein stability index for the entry MSYDEISQLRLVCKRMDLVCQRML [FBXO28] : 2.43

Value of measured protein stability index for the entry LASYLEKVRALEEANADLEVKIRD [KRT13] : 3.52

Value of measured protein stability index for the entry EQELYNNFVYNSPRGYFHTFAGDT [WASL] : 2.73

Value of measured protein stability index for the entry CGSKACRRLFGPVDSEQLRRDCDA [CDKN1A] : 3.18

Value of measured protein stability index for the entry EGPDLVPAALGSLTTAQIARSVWR [HES6] : 3.33

Value of measured protein stability index for the entry LKLMDRHKKDCAREKPFKCQECGK [ZNF75A] : 3.74

Value of measured protein stability index for the entry EQCPVIDSQAPAGSLDLVPGGLTL [SPDEF] : 4.07
